- Tested on: Streptococcus mutans
- PROTOCOL_DESCRIPTION: Bacterial Kill Rate Test
- Assay type: cell-based
- STUDY_CONDITIONS: 0.1 wt % compound; 2 min.
Structures can show the parent of a compound that is named as a salt.
Listed here: items and their measured Bacteria Count Reduction (log reduction).
MEASUREMENT_KIND: Bacteria Count Reduction (log reduction)

>>> assay_result("N[C@H]1C(O)O[C@H](CO)[C@H](O)[C@@H]1O (stereo partly drawn) [Galactosamine HCl, D-galactosamine]")
1.13
>>> assay_result("N[C@H]1C(O)O[C@H](COP(=O)(O)O)[C@@H](O)[C@@H]1O (stereo partly drawn) [Glucosamine-6-Phosphate, D-glucosamine-6-phosphate]")
0.99
>>> assay_result("N[C@H]1C(O)O[C@H](CO)[C@@H](O)[C@@H]1O (stereo partly drawn) [Glucosamine HCl, D-glucosamine]")
1.03
>>> assay_result("N[C@@H]1C(O)O[C@H](CO)[C@@H](O)[C@@H]1O (stereo partly drawn) [Mannosamine HCl, D-mannosamine]")
1.01
>>> assay_result("N[C@H]1C(O)O[C@H](CO)[C@@H](O)[C@@H]1O (stereo partly drawn) [Glucosamine Sulfate, D-glucosamine]")
0.95
>>> assay_result("CC(=O)N[C@H]1C(O)O[C@H](CO)[C@@H](O)[C@@H]1O (stereo partly drawn) [N-Acetylglucosamine, reference compound]")
1.09

----------
- Test system: Streptococcus mutans
- PROTOCOL_DESCRIPTION: Bacterial Kill Rate Test
- Type: cell-based
- STUDY_CONDITIONS: 0.5 wt % compound; 5 min.
Structures can show the parent of a compound that is named as a salt.
MEASUREMENT_KIND: Bacteria Count Reduction (log reduction)

>>> assay_result("N[C@H]1C(O)O[C@H](CO)[C@H](O)[C@@H]1O (stereo partly drawn) [Galactosamine HCl, D-galactosamine]")
1.08
>>> assay_result("CC(=O)N[C@@H]1C(O)O[C@H](CO)[C@@H](O)[C@@H]1O (stereo partly shown) [N-Acetylmannosamine, reference compound]")
1.54
>>> assay_result("N[C@@H]1C(O)O[C@H](CO)[C@@H](O)[C@@H]1O (stereo partly drawn) [Mannosamine HCl, D-mannosamine]")
0.98
>>> assay_result("N[C@H]1C(O)O[C@H](COP(=O)(O)O)[C@@H](O)[C@@H]1O (stereo partly drawn) [Glucosamine-6-Phosphate, D-glucosamine-6-phosphate]")
1.11
>>> assay_result("CC(=O)N[C@H]1C(O)O[C@H](CO)[C@@H](O)[C@@H]1O (stereo partly shown) [N-Acetylglucosamine, reference compound]")
1.16
>>> assay_result("N[C@H]1C(O)O[C@H](CO)[C@@H](O)[C@@H]1O (stereo partly drawn) [Glucosamine Sulfate, D-glucosamine]")
0.80
>>> assay_result("N[C@H]1C(O)O[C@H](CO)[C@@H](O)[C@@H]1O (stereo partly drawn) [Glucosamine HCl, D-glucosamine]")
0.98

----------
- System: Streptococcus mutans culture (ATCC 25175)
- PROTOCOL_DESCRIPTION: Quantitative Biofilm Inhibition Test
- Type: cell-based
- STUDY_CONDITIONS: Streptococcus mutans, ATCC25175, 20 h, 1 weight percent compound; broth with 1.0 weight percent sucrose; approx. twenty hours at 37° C.; average OD at 550 nm as percentage of control (100%); read-out: OD Ratio
Where a name gives a salt, the structure may show the parent alone.
MEASUREMENT_KIND: activity at 1 % w/w (%)

>>> assay_result("O=C[C@H](O)[C@@H](O)[C@@H](O)[C@H](O)CO")
87
>>> assay_result("O=C(CO)[C@@H](O)[C@@H](O)[C@H](O)CO")
145
>>> assay_result("N[C@H]1C(O)O[C@H](CO)[C@H](O)[C@@H]1O (stereo partly drawn) [Galactosamine HCl, D-galactosamine]")
0
>>> assay_result("N[C@H]1C(O)O[C@H](COP(=O)(O)O)[C@@H](O)[C@@H]1O (stereo partly drawn) [Glucosamine-6-Phosphate, D-glucosamine-6-phosphate]")
2
>>> assay_result("C[C@H](O)[C@@H](O)[C@@H](O)[C@H](O)C=O")
121

----------
- Test system: Streptococcus mutans
- PROTOCOL_DESCRIPTION: Bacterial Kill Rate Test
- Assay type: cell-based
- STUDY_CONDITIONS: 1.0 wt % compound; 2 min.
Where a name gives a salt, the structure may show the parent alone.
MEASUREMENT_KIND: Bacteria Count Reduction (log reduction)

>>> assay_result("N[C@H]1C(O)O[C@H](COP(=O)(O)O)[C@@H](O)[C@@H]1O (stereo partly drawn) [Glucosamine-6-Phosphate, D-glucosamine-6-phosphate]")
"1.12 log reduction"
>>> assay_result("N[C@H]1C(O)O[C@H](CO)[C@@H](O)[C@@H]1O (stereo partly drawn) [Glucosamine HCl, D-glucosamine]")
"0.93 log reduction"
>>> assay_result("N[C@@H]1C(O)O[C@H](CO)[C@@H](O)[C@@H]1O (stereo partly drawn) [Mannosamine HCl, D-mannosamine]")
"0.96 log reduction"
>>> assay_result("CC(=O)N[C@H]1C(O)O[C@H](CO)[C@@H](O)[C@@H]1O (some centres unmarked) [N-Acetylglucosamine, reference compound]")
"1.05 log reduction"
>>> assay_result("N[C@H]1C(O)O[C@H](CO)[C@@H](O)[C@@H]1O (stereo partly drawn) [Glucosamine Sulfate, D-glucosamine]")
"0.95 log reduction"

----------
- Tested on: Streptococcus mutans
- PROTOCOL_DESCRIPTION: Bacterial Kill Rate Test
- Format: cell-based
- STUDY_CONDITIONS: 1.0 wt % compound; 10 min.
Where a name gives a salt, the structure may show the parent alone.
MEASUREMENT_KIND: Bacteria Count Reduction (log reduction)

>>> assay_result("CC(=O)N[C@H]1C(O)O[C@H](CO)[C@@H](O)[C@@H]1O (some centres unmarked) [N-Acetylglucosamine, reference compound]")
1.06
>>> assay_result("N[C@H]1C(O)O[C@H](COP(=O)(O)O)[C@@H](O)[C@@H]1O (stereo partly drawn) [Glucosamine-6-Phosphate, D-glucosamine-6-phosphate]")
2.09
>>> assay_result("N[C@H]1C(O)O[C@H](CO)[C@@H](O)[C@@H]1O (stereo partly drawn) [Glucosamine Sulfate, D-glucosamine]")
0.97
>>> assay_result("N[C@H]1C(O)O[C@H](CO)[C@@H](O)[C@@H]1O (stereo partly drawn) [Glucosamine HCl, D-glucosamine]")
0.97
>>> assay_result("N[C@@H]1C(O)O[C@H](CO)[C@@H](O)[C@@H]1O (stereo partly drawn) [Mannosamine HCl, D-mannosamine]")
0.99

----------
- System: Streptococcus mutans culture (ATCC 25175)
- PROTOCOL_DESCRIPTION: Qualitative Biofilm Inhibition Test
- Assay type: cell-based
- Set-up: key: +: refers to a visual assessment that a compound inhibited biofilm formation; −: refers to a visual assessment that either a compound did not inhibit biofilm formation, or that bacteria grew in the culture broth
- STUDY_CONDITIONS: 1 weight percent compound; visible biofilm on disc after incubation and rinse
Where a name gives a salt, the structure may show the parent alone.
MEASUREMENT_KIND: Visual Assessment

>>> assay_result("O=C[C@H](O)[C@@H](O)[C@@H](O)[C@H](O)CO [Galactose]")
"−"
>>> assay_result("O=C(CO)[C@@H](O)[C@@H](O)[C@H](O)CO [D-Tagatose]")
"−"
>>> assay_result("CC(=O)N[C@H]1C(O)O[C@H](CO)[C@@H](O)[C@@H]1O (stereo partly shown) [N-Acetylglucosamine, reference compound]")
"−"
>>> assay_result("N[C@@H]1C(O)O[C@H](CO)[C@@H](O)[C@@H]1O (stereo partly drawn) [Mannosamine HCl, D-mannosamine]")
"+"

Hello, the source for this data is patent US8329674B2, in case you need it.
